# Tested on: A549/ATCC NSCLC
# Assay details: NCI-60 one-dose screen, 48 h (100 = growth as untreated, 0 = no growth, -100 = all killed)
# Cond: 10 µM unless noted
About 83,000 compounds went through this panel and 20% of them were active in at least one assay; those are over-represented in the sample as a whole.
Measurement name: growth (%)

Cc1ccc(S(=O)(=O)NCCNc2nc(Nc3ccc(N4CCN(C)CC4)cc3)nc3ccsc23)cc1	93.8
Cc1ccc(N2C(=O)/C(=C/C=C/c3ccco3)SC2=S)cc1	86.3
CC[C@]12C=CCN3CC[C@@]4(c5cc(NC(=O)COc6cc(O)c7c(=O)cc(-c8ccccc8)oc7c6)c(OC)cc5N(C)[C@H]4[C@@](O)(C(=O)OC)[C@@H]1OC(C)=O)[C@@H]32	-68.5
CC(=O)c1ccc(Nc2nc(SCC(C)C)nc(-c3ccc(F)cc3)c2C#N)cc1	109
CCCCCc1ccc(S(=O)(=O)Nc2cccc(-c3csc(NC(=O)CCCCCN4CCN(CCO)CC4)n3)c2)cc1	74.5
NS(=O)(=O)c1ccc(Nc2nc(SCC(=O)c3ccc(Cl)cc3)nc3c2CCCC3)cc1	38.9
CNC1CCc2c(sc(NC(=O)c3ccc(C(C)(C)C)cc3)c2C(N)=O)C1 (stereo unspecified)	31
COC[C@]12CCC(C)(C)C[C@H]1C1=CC[C@@H]3[C@@]4(C)CCCNC(C)(C)[C@@H]4CC[C@@]3(C)[C@]1(C)CC2	10.1
CCn1c(SCC(=O)Nc2cccc(C(=O)/C=C/c3cc(OC)c(OC)c(OC)c3)c2)nc2ccccc2c1=O	41.1
O=C(CN1CCN(c2cc(=O)[nH]c3ccc(F)cc23)CC1)Nc1ccc(Cl)cc1	71.8
O=C1CCC(N2C(=O)c3ccc(NS(=O)(=O)c4ccccc4OC(F)(F)F)cc3C2=O)C(=O)N1 (stereo unspecified)	78.7

----------
# System: MALME-3M melanoma
# Assay details: NCI-60 one-dose screen, 48 h
# Cond: 10 µM unless noted
# Method: Cells are grown in 96 well plates and exposed to the test compound for 48 hours. Compounds are tested at a single concentration, which is 10^-5 M for most compounds. The reported endpoint is percent growth (GI% or GIPRCNT), where numbers from 0 - 100% represent growth inhibition, and numbers from -100% - 0 represent cell death. For example, a value of 40 represents 60% growth inhibition. A value of 0 means no net growth occurred over the course of the experiment. […]
About 83,000 compounds went through this panel and 20% of them were active in at least one assay; those are over-represented in the sample as a whole. Activity calls are given as the source filed them. Rule for the calls: active = growth percent below 10; inactive = the rest.
Labels: active, inactive

Cc1ccc(CSc2nc(-c3ccc(Cl)cc3)c(C#N)c(N3CCOCC3)n2)cc1	inactive
CCCCNNC(=O)c1ccc(-c2cccc(F)c2F)cc1	active
COc1c(N2CC3CCCNC3C2)c(F)cc2c(=O)c(C(=O)N/N=C/c3ccc4c(c3)OCO4)cn(C3CC3)c12 (configuration not stated)	inactive
CN1CCC(n2cc(Nc3ncc4c(=O)n(-c5c(Cl)cccc5Cl)cc(Br)c4n3)cn2)CC1	inactive
COc1ccc2c(c1)c(CC(=O)[Se]CC#N)c(C)n2C(=O)c1ccc(Cl)cc1	active
N#C/C(=C\c1ccc(-c2ccc(Cl)cc2Cl)o1)c1ccc(F)cc1	inactive
Cc1cccc2c3c(sc12)C(c1ccc(Cl)cc1)c1c(nc(CC(=O)Nc2ccccc2)[nH]c1=O)O3 (configuration not stated)	inactive
COc1cc(-c2nn(C(C)(C)C)cc2-c2ccnc(NCCCNS(=O)(=O)c3cccc(F)c3)n2)ccc1Cl	inactive
CN1CCN(c2ccc(/C=N/Nc3nc4ccccc4c(=O)n3-c3ccccc3)cc2)CC1	inactive
COC(=O)C1(C)CCC[C@]2(C)[C@H]3C[C@H]4C(C(C)C)=C[C@]3(CC[C@@H]12)[C@H]1[C@@H]4[C@@H](OC(=O)c2ccco2)CC[C@@H]1OC(=O)c1ccco1 (some centres not stated)	inactive
COc1cc(-c2nn(C(C)(C)C)cc2-c2ccnc(NCCCNS(=O)(=O)c3ccccc3)n2)ccc1Cl	inactive
N#Cc1cccc(/C(N)=N/C(N)=N/c2nc3ccccc3s2)c1	inactive
